Tested on: SK-MEL-2 melanoma
Assay: NCI tumour cell line growth inhibition, 48 h
property: TGI

# TGI (compound: CC[N+](C)(CC)CCN1C(=O)c2ccccc2S1(=O)=O ) is > 100 µM

# TGI (compound: OC1OC(c2ccco2)C(F)(F)C(F)(F)C1(F)F (centres undefined) ) is > 100 µM

# TGI (compound: O=[As](O)(O)c1cc(N=Nc2ccc(-c3ccc(N=Nc4cc([As](=O)(O)O)c(O)cc4O)cc3)cc2)c(O)cc1O ) is > 100 µM

# TGI (compound: CC(C)=CC(C(O)c1ccccc1)S(=O)(=O)c1nccn1C (centres undefined) ) is > 100 µM

# TGI (compound: Cc1nc(N)sc1C(=O)/C=C/c1ccc(/C=C/C(=O)c2sc(NC(=O)CCCCCCCCC(=O)Nc3nc(C)c(C(=O)/C=C/c4ccc(/C=C/C(=O)c5sc(N)nc5C)cc4)s3)nc2C)cc1 ) is > 100 µM

# TGI (compound: CN(C(=O)c1ccc(Cl)s1)C(=S)N(C)C(=O)c1ccc(Cl)s1 ) is > 10 µM

# TGI (compound: COc1ccc(NC2Oc3cc4c(cc3C(c3cc(OC)c(O)c(OC)c3)C2C)OCO4)cc1 (centres undefined) ) is 6.72 µM

# TGI (compound: COc1cc([C@H](C)c2ccc3ccccc3c2)cc(OC)c1OC ) is 65.4 µM

# TGI (compound: COc1ccc(CNc2nc(NCc3ccc(OC)cc3)nc(N3CCOCC3)n2)cc1 ) is > 100 µM

====

Hi there, I'd appreciate the recorded TGI for every entry that follows.
Tested on: A549 NSCLC
Test: NCI tumour cell line growth inhibition, 48 h
Where a SMILES comes first, the peptide text is derived from it. [ ]: non-standard residue; d: D form. The star is where a group is joined. Cbz = O=C(OCc1ccccc1)*; Boc = CC(C)(C)OC(=O)*; Aib = CC(C)(N)C(=O)O; OBn = c1ccc(CO*)cc1; OtBu = CC(C)(C)O*; βAla = NCCC(=O)O

# TGI (compound: Cc1cc2c(CC(=O)O)[nH]nc2c(C(=O)O)c1C ) is > 100 µM

# TGI (compound: O=C1C=C(c2c(O)ccc3ccccc23)c2ccccc2C1=O ) is 25.7 µM

# TGI (compound: COC(=O)C1(C(=O)OC)N=C(C)OC1C(C)C (configuration not stated) ) is > 100 µM

# TGI (compound: O=C1NC(N/N=C\c2ccccc2)=N/C1=C/c1ccc(Cl)cc1 ) is 62.9 µM

# TGI (compound: CC(C)(C)OC(=O)CC(NC(=O)OC(C)(C)C)C(=O)NC(CCCCNC(=O)OCc1ccccc1)C(=O)NC(C)(C)C(=O)NCCC(=O)OCc1ccccc1 (configuration not stated) (Boc-D(OtBu)K(Cbz)[Aib][βAla]-OBn; configuration not given here) ) is > 100 µM

# TGI (compound: O=c1ccn(C2OC(CO)C(O)C2O)c(=O)[nH]1 (configuration not stated) ) is > 1000 µM

# TGI (compound: CN1C2CC(=O)CC1[C@@H]1OC(c3ccccc3)O[C@H]21 (some centres not stated) ) is > 100 µM

====

Tested on: ACHN renal
Test: NCI tumour cell line growth inhibition, 48 h; in the data active means GI50 below about 0.43 µM; inactive means the rest
Mark one answer only. Choices: active, inactive

Exercise: How was COc1cc(/C=C/c2cc(C(F)(F)F)[nH]c(=O)n2)ccc1OCc1ccccc1F classified in this test?
Key: inactive

Exercise: How was CC(=O)Oc1cc(C)ccc1[C@]1(C)CC[C@H](C)/C1=C\Br classified in this test?
Key: inactive

Exercise: How was CCOc1ccc(/C=C/C(=O)c2ccccc2)cc1 classified in this test?
Key: inactive

Exercise: How was O=C(Nc1ccccc1C(F)(F)F)c1cccc(NC2=C(Cl)C(=O)N(Cc3ccccc3)C2=O)c1 classified in this test?
Key: inactive

Exercise: How was C=CCn1c(C)nc2cc(Nc3nc(Nc4ccc5nc(C)n(CC=C)c5c4)c4ccccc4n3)ccc21 classified in this test?
Key: active
